Values from patent US12686690B2

# ASSAY_SYSTEM: hOX2R (Homo sapiens, UniProt O43614)
# Construct: expressed in transfected cells; host or cells: CHO cells (G418 selection)
# Sequence (O43614 whole entry): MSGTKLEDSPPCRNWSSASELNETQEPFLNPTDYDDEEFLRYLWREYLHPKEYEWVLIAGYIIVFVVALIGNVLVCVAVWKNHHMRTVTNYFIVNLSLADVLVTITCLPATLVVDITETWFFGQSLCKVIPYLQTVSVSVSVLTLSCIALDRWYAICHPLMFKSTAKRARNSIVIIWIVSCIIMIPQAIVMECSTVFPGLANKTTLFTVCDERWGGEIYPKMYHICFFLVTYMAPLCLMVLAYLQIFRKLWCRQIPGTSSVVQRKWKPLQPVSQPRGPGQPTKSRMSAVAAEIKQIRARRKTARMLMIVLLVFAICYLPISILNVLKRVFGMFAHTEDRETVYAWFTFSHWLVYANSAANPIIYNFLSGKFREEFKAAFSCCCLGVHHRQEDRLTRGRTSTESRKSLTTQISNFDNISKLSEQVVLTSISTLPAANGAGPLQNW
# TEST: hOX2R IPone assay (orexin receptor agonism)
# Type: cell-based
# MEASUREMENT_CONTEXT: maximal activation, IPone readout
QUANTITY: hOX2R_Ipone max %act (%)
# unit: % | format: bare number

Known results for molecules:
MOLECULE: CCN1C(=O)N[C@@H](CCC(F)(F)F)CCCCCOc2cc(nn3cc(C)nc23)-c2cc(ncc2OC)[C@H]1C
OBSERVED_RESULT: 102
//
MOLECULE: CCN1C(=O)NC(CC2CC2)CCCCCOc2nc(cn3ccnc23)-c2cc(ncc2OC)[C@H]1C (single isomer, unassigned) [Example 55B]
OBSERVED_RESULT: 101.2
//
MOLECULE: CCN1C(=O)N[C@@H](CCC(F)(F)F)CCCCCOc2cc(cn3ccnc23)-c2cc(cnc2OC)[C@H]1C
OBSERVED_RESULT: 100.5

// recorded hOX2R_Ipone max %act for CCN1C(=O)N[C@@H](C(F)(F)F)CCCCOc2nc(cn3ccnc23)-c2cc(ncc2OC)C1C(F)(F)F (single isomer, unassigned) [Example 39B] : 97.5

GET /value?item= CCN1C(=O)NC(CC2(C(F)(F)F)CC2)CCCCCOc2nc(cn3ccnc23)-c2cc(ncc2OC)[C@H]1C (single isomer, unassigned) [Example 66A] &field=hOX2R_Ipone max %act returns 102.9

// recorded hOX2R_Ipone max %act for CCN1C(=O)N[C@@H](CCC(F)(F)F)CCCCCCc2cc(cn3ccnc23)-c2nc(ccc2OC)[C@H]1C : 99.7
